The reader will find reported High Spin State values listed item by item below.
Target: EtCYP112 (Erwinia tracheiphila)
Assay: UV-Vis spectral binding titration of EtCYP112
Settings: conversion of EtCYP112 to high-spin state upon ligand addition

Some solved cases for reference:
1. C=C1C[C@@]23CC[C@@H]4[C@](C)(CO)CCC[C@@]4(C)[C@@H]2CC[C@@H]1C3 [ent-kaurenol]: 20 – 30%
2. C=C1C[C@]23C[C@H]1CC[C@H]2[C@]1(C)CCC[C@@](C)(C(=O)O)[C@H]1C[C@@H]3O (single isomer, unassigned) [ent-7α-hydroxy kaurenoic acid]: 50 – 60%

Consider now this further molecule.
Could you share which High Spin State value was measured for C=C1C[C@]23C[C@H]1CC[C@H]2[C@]1(C)CCC[C@@](C)(C(=O)O)[C@H]1[C@@H]3C(=O)O [GA12] ? > 90%

* * *

Molecular target: EtCYP112 (Erwinia tracheiphila)
Experiment: UV-Vis spectral binding titration of EtCYP112
Details: conversion of EtCYP112 to high-spin state upon ligand addition
The reader will find reported High Spin State values listed item by item below.

Some solved cases for reference:
1. C=C1C[C@@]23CC[C@@H]4C(C)(C)CCC[C@@]4(C)[C@@H]2CC[C@@H]1C3 [ent-kaurene]: < 5%
2. C=C1C[C@@]23CC[C@H]4[C@@](C)(CCC[C@@]4(C)C(=O)O)[C@@H]2CC[C@@H]1C3 [ent-kaurenoic acid]: 50 – 60%
3. C=C1C[C@]23C[C@H]1CC[C@H]2[C@]1(C)CCC[C@@](C)(C(=O)O)[C@H]1[C@@H]3C=O [GA12-aldehyde]: > 90%
4. C=C1C[C@]23C[C@H]1CC[C@H]2[C@]1(C=O)CCC[C@@](C)(C(=O)OC)[C@H]1[C@@H]3C(=O)OC [MeGA24]: 5 – 10%
5. C=C1C[C@]23C[C@H]1CC[C@H]2[C@]1(C=O)CCC[C@@](C)(C(=O)O)[C@H]1[C@@H]3C(=O)O [GA24]: 80 – 90%

Could you share which High Spin State value was measured for C=C1C[C@]23C[C@H]1CC[C@H]2[C@]1(C(=O)O)CCC[C@@](C)(C(=O)O)[C@H]1[C@@H]3C(=O)O [GA25] ? 10 – 20%

Could you share which High Spin State value was measured for C=C1C[C@]23C[C@H]1CC[C@H]2[C@@]12CCC[C@@](C)(C(=O)OC1)[C@H]2[C@@H]3C(=O)OC [MeGA15] ? 80 – 90%

Could you share which High Spin State value was measured for C=C1C[C@]23C[C@H]1CC[C@H]2[C@]1(C)CCC[C@@](C)(C(=O)OC)[C@H]1[C@@H]3C(=O)OC [MeGA12] ? 50 – 60%

Could you share which High Spin State value was measured for C=C1C[C@@]23CC[C@H]4[C@@](C)(CCC[C@@]4(C)C(=O)OC)[C@@H]2CC[C@@H]1C3 [methyl-ent-kaurenoate] ? 10 – 15%

* * *

The reader will find reported shift of the Soret-band from 419 to 391 nm values listed item by item below.
Target: EtCYP112 (Erwinia tracheiphila, UniProt A0A0M2KIP9)
Experiment: UV-Vis spectral binding titration of EtCYP112
Conditions: upon ligand addition

1. C=C1C[C@]23C[C@H]1CC[C@H]2[C@]1(C(=O)O)CCC[C@@](C)(C(=O)O)[C@H]1[C@@H]3C(=O)O: 10–20%

Consider now this further compound.
Could you share which shift of the Soret-band from 419 to 391 nm value was measured for C=C1C[C@]23C[C@H]1CC[C@H]2[C@@]12CCC[C@@](C)(C(=O)O1)[C@H]2[C@@H]3C(=O)O ? ~5%

* * *

Target: EtCYP112 (Erwinia tracheiphila, UniProt A0A0M2KIP9)
Assay: UV-Vis spectral binding titration of EtCYP112
Conditions: conversion of EtCYP112 to high-spin state upon ligand addition
Test readout: High Spin State

1. C=C1C[C@]23C[C@H]1CC[C@H]2[C@@]12CCC[C@@](C)(C(=O)OC1)[C@H]2[C@@H]3C(=O)O [GA15 (closed lactone), GA15]: > 90%
2. C=C1C[C@@]23CC[C@H]4[C@@](C)(CCC[C@@]4(C)C=O)[C@@H]2CC[C@@H]1C3 [ent-kaurenal]: 5 – 10%

Consider now this further compound.
Could you share which High Spin State value was measured for C=C1C[C@]23C[C@H]1CC[C@H]2[C@@]12CCC[C@@](C)(C(=O)O1)[C@H]2[C@@H]3C(=O)O [GA9] ? < 5%

src = paper PMC6035067
